Data origin: patent US11912693B2

- ASSAY SYSTEM: human sphingosine-1-phosphate receptor 1 (S1P1) (Homo sapiens (Human))
- Sequence (P21453 whole entry, looked up): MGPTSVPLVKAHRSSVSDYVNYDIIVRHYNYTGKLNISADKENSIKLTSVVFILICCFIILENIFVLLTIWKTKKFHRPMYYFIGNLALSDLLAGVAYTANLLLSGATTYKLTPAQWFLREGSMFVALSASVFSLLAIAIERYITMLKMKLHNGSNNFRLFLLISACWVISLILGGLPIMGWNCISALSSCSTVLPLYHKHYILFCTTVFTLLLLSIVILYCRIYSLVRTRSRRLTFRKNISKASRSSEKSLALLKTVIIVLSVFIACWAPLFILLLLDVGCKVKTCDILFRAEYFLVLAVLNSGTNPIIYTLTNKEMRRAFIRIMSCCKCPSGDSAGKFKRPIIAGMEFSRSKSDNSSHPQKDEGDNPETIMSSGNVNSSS
- Sequence (P32121 whole entry partner, looked up): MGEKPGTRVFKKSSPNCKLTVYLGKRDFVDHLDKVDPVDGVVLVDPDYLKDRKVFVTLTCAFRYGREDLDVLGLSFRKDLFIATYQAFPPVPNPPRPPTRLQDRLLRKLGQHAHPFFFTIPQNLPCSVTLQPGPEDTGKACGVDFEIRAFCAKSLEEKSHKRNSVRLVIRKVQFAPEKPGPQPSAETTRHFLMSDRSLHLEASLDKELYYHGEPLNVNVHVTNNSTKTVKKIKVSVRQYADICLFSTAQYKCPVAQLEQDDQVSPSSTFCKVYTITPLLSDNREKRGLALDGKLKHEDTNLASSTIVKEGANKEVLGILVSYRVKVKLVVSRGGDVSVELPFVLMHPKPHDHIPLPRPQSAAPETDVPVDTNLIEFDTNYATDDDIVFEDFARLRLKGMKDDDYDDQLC
- ASSAY COMMENT: β-Arrestin2 recruitment assay (PathHunter), S1P1 CHO-K1 cells
- Assay type: cell-based
- CONDITION: CHO-K1; efficacy (SPAN) normalized to fingolimod; read-out: hS1P1 B-arrestin2 SPAN
This listing pairs compounds with measured Emax.

COMPOUND | Emax
CC(C)n1nnc2cc(-c3nc(-c4ccccc4Br)co3)ccc21 [Compound 183] | > 75%
CC(C)Oc1ccccc1-c1noc(-c2ccc3c(cnn3C(C)C)c2)n1 [Compound 334] | > 75%
CCC1(CC)CC(=O)c2cc(-c3nc(-c4cncc(O)c4)no3)ccc2O1 [Compound 310] | > 75%
FC(F)(F)c1cc(Br)ccc1-c1noc(-c2ccc3c(c2)nnn3C2CCCC2)n1 [Compound 114] | < 75%
Cc1ccccc1-c1noc(-c2ccc3c(c2)nnn3C2CCCCC2)n1 [Compound 245] | > 75%
Cc1cc(-c2noc(-c3ccc4c(c3)nnn4C(C)C)n2)c(C)o1 [Compound 490] | > 75%
CCCn1nnc2cc(-c3nc(-c4ccncc4)no3)ccc21 [Compound 205] | < 75%
CC(C)n1nnc2cc(-c3ncc(-c4ccccc4C(F)(F)F)s3)ccc21 [Compound 215] | < 75%
COc1ccc(-c2nc(-c3ccc4c(c3)nnn4C(C)C)no2)cc1 [Compound 69] | < 75%
Cc1ccccc1-c1noc(-c2ccc3c(c2)nnn3C(C)C)n1 [Compound 293] | > 75%
COc1cccc(-c2cnc(-c3ccc4c(c3)nnn4C(C)C)s2)c1 [Compound 108] | < 75%
CC(C)n1nnc2cc(-c3nc(Cc4ccccc4)no3)ccc21 [Compound 88] | < 75%
COc1cc(NC(C)=O)ccc1-c1noc(-c2ccc3c(c2)nnn3C(C)C)n1 [Compound 532] | < 75%
N#Cc1cc(-c2nnc(-c3ccc4[nH]ncc4c3)o2)ccc1NCC1CC1 [Compound 352] | > 75%
N#Cc1cc(-c2nc(-c3ccc4c(c3)CC(=O)N4)no2)ccc1NCC1CC1 [Compound 210] | > 75%
CC(C)Cn1nnc2cc(-c3nc4c(Br)cccc4o3)ccc21 [Compound 461] | > 75%
CCC1(CC)CC(=O)c2cc(-c3nc(-c4ccc(C(N)=O)cc4)no3)ccc2O1 [Compound 179] | > 75%
CC(C)n1ccc2cc(-c3nc(-c4ccccc4F)cs3)ccc21 [Compound 403] | < 75%
Cc1ccc(-c2noc(-c3ccc4c(c3)nnn4C3CC3)n2)cn1 [Compound 87] | < 75%
Cc1ccccc1-c1noc(-c2ccc3nnn(C(C)C)c3c2)n1 [Compound 308] | < 75%
COc1ccc(-c2noc(-c3ccc4c(c3)nnn4C3CCCC3)n2)c2ccccc12 [Compound 91] | < 75%
COc1ccccc1-c1nc(-c2ccc3c(c2)nnn3C(C)C)co1 [Compound 575] | > 75%
COc1ccccc1-c1nnc(-c2ccc3[nH]c(=O)oc3c2)o1 [Compound 349] | < 75%
C=C(F)CNc1ccc(-c2nc(-c3ccc4c(c3)CCC(=O)N4)no2)cc1C#N [Compound 346] | > 75%
Cc1ccc(-c2noc(-c3ccc4c(c3)nnn4C(C)C)n2)cn1 [Compound 236] | > 75%
COc1cccc(F)c1-c1noc(-c2ccc3c(cnn3C(C)C)c2)n1 [Compound 338] | > 75%
CCC1(CC)CC(=O)c2cc(-c3nc(-c4ccc(OC)cc4)no3)ccc2O1 [Compound 65] | < 75%
FC(F)(F)Oc1ccccc1-c1nc(-c2ccc3c(c2)nnn3C2CCCC2)no1 [Compound 84] | > 75%
Cc1ccccc1-c1noc(-c2ccc3c(c2)nnn3CC2CC2)n1 [Compound 288] | < 75%
COc1cccc(-c2noc(-c3ccc4c(c3)nnn4C3CCCC3)n2)n1 [Compound 124] | < 75%
CCC1(CC)CC(=O)c2cc(-c3nc(-c4cccnc4)ns3)ccc2O1 [Compound 309] | > 75%
Cc1ccccc1-c1noc(-c2ccc3c(c2)nnn3CC(F)F)n1 [Compound 182] | < 75%
CC(C)n1nnc2cc(-c3noc(-c4ccccc4F)n3)ccc21 [Compound 307] | > 75%
COc1cccnc1-c1noc(-c2ccc3c(c2)nnn3C(C)C)n1 [Compound 627] | > 75%
CCC1(CC)CC(=O)c2cc(-c3nc(-c4ccnc(F)c4)no3)ccc2O1 [Compound 146] | < 75%
Cc1ccccc1-c1cc(-c2ccc3c(c2)nnn3C(C)C)n(C)c1 [Compound 517] | < 75%
